- target-desc: DNA gyrase (Escherichia coli) (UniProt P0AES6+P0AES4)
- test-protocol: In vitro inhibitory least concentration which show effect against Escherichia coli HR DNA gyrase
- Format: protein-complex assay
Please respond with reported IC0 for every item in the list.

Please tell me: IC0 of N[C@H]1CCN(c2cc(F)c3c(=O)c(C(=O)O)cn(C4CC4)c3c2F)C1 , system DNA gyrase (Escherichia coli) (UniProt P0AES6+P0AES4)?
0.32 µg/mL

Input N[C@H]1CCN(c2cc(F)c3c(=O)c(C(=O)O)cn(C4CC4)c3c2)C1
0.64 µg/mL

Would you mind doing N[C@H]1CCN(c2ccc3c(=O)c(C(=O)O)cn(C4CC4)c3c2)C1 as well?
0.32 µg/mL

Next compound: N[C@H]1CCN(c2ccc3c(=O)c(C(=O)O)cn(C4CC4)c3c2F)C1
0.32 µg/mL

Further, for N[C@H]1CCN(c2cc3c(cc2F)c(=O)c(C(=O)O)cn3C2CC2)C1 ?
0.24 µg/mL

###

- Test system: Providencia rettgeri
- test-protocol: In vitro antibacterial activity expressed as MIC against Providencia rettgeri
- Type: functional
Can you tell me MIC for the items I'm about to list?
Entry rule: numbers only, all in µg/mL.

Need MIC, item N[C@H]1CCN(c2cc(F)c3c(=O)c(C(=O)O)cn(C4CC4)c3c2F)C1
8

What about N[C@H]1CCN(c2cc3c(cc2F)c(=O)c(C(=O)O)cn3C2CC2)C1 ?
0.5

# repeat for N[C@H]1CCN(c2ccc3c(=O)c(C(=O)O)cn(C4CC4)c3c2)C1
8

Please do the same for N[C@H]1CCN(c2ccc3c(=O)c(C(=O)O)cn(C4CC4)c3c2F)C1 as well.
1

Now consider N[C@H]1CCN(c2cc(F)c3c(=O)c(C(=O)O)cn(C4CC4)c3c2)C1 .
16

###

Consider the following compounds; for each one, report its MIC.
- Test system: Klebsiella oxytoca
- test-protocol: In vitro antibacterial activity expressed as MIC against Klebsiella oxytoca
- Type: functional
Only the number, expressed in µg/mL, is required.

// MIC lookup, key: N[C@H]1CCN(c2cc(F)c3c(=O)c(C(=O)O)cn(C4CC4)c3c2F)C1
0.5

Do the same for N[C@H]1CCN(c2cc(F)c3c(=O)c(C(=O)O)cn(C4CC4)c3c2)C1 please
1

// next record N[C@H]1CCN(c2ccc3c(=O)c(C(=O)O)cn(C4CC4)c3c2F)C1
0.06

What do we get for N[C@H]1CCN(c2ccc3c(=O)c(C(=O)O)cn(C4CC4)c3c2)C1 ?
0.25

Next record, please: N[C@H]1CCN(c2cc3c(cc2F)c(=O)c(C(=O)O)cn3C2CC2)C1
0.03

###

- target-desc: DNA gyrase (Escherichia coli) (UniProt P0AES6+P0AES4)
- test-protocol: In vitro antibacterial activity expressed as MIC against Escherichia coli HR DNA gyrase
- Format: protein-complex assay
Mark Yes only when MIC stays strictly below 0.02 µg/mL. Values equal to the cut-off are No.

Say whether its MIC is strictly beneath 0.02 µg/mL. Entry: N[C@H]1CCN(c2cc3c(cc2F)c(=O)c(C(=O)O)cn3C2CC2)C1
Yes

Follow-up item: N[C@H]1CCN(c2cc(F)c3c(=O)c(C(=O)O)cn(C4CC4)c3c2)C1
No

Then this compound: N[C@H]1CCN(c2cc(F)c3c(=O)c(C(=O)O)cn(C4CC4)c3c2F)C1
No

Try the compound CCn1cc(C(=O)O)c(=O)c2cc(F)c(N3CCN(C)CC3)cc21
Yes

Ok, now N[C@H]1CCN(c2ccc3c(=O)c(C(=O)O)cn(C4CC4)c3c2)C1
Yes

Next compound: CCn1cc(C(=O)O)c(=O)c2ccc(C)nc21
No

Record: O=C(O)c1cn(C2CC2)c2cc(N3CCNCC3)c(F)cc2c1=O
Yes

Do the same for N[C@H]1CCN(c2ccc3c(=O)c(C(=O)O)cn(C4CC4)c3c2F)C1 please
Yes

###

- target-desc: DNA gyrase (Escherichia coli) (UniProt P0AES6+P0AES4)
- test-protocol: In vitro inhibitory concentration which show total effect against Escherichia coli HR DNA gyrase
- Assay type: protein-complex assay
For each record, write down the corresponding IC100.
Write the number in µg/mL without appending the unit.

Tell me the measured IC100 of CCn1cc(C(=O)O)c(=O)c2cc(F)c(N3CCN(C)CC3)cc21 , please.
20

Please answer likewise for N[C@H]1CCN(c2cc3c(cc2F)c(=O)c(C(=O)O)cn3C2CC2)C1
20

Moving on to N[C@H]1CCN(c2ccc3c(=O)c(C(=O)O)cn(C4CC4)c3c2)C1
20

Also, N[C@H]1CCN(c2cc(F)c3c(=O)c(C(=O)O)cn(C4CC4)c3c2)C1 please.
20

Another compound to look at: N[C@H]1CCN(c2ccc3c(=O)c(C(=O)O)cn(C4CC4)c3c2F)C1
10

Further, for CCn1cc(C(=O)O)c(=O)c2ccc(C)nc21 ?
200

Thanks! And N[C@H]1CCN(c2cc(F)c3c(=O)c(C(=O)O)cn(C4CC4)c3c2F)C1 ?
10

Consider next the compound O=C(O)c1cn(C2CC2)c2cc(N3CCNCC3)c(F)cc2c1=O [CIPROFLOXACIN] in the same way.
10

###

- Tested on: Pseudomonas aeruginosa
- test-protocol: In vitro antibacterial activity expressed as MIC against Pseudomonas aeruginosa
- Type: functional
parameter: MIC (µg/mL)
Respond with the bare value in µg/mL.

Dear colleague, I am looking for the recorded MIC of the following molecule: N[C@H]1CCN(c2cc3c(cc2F)c(=O)c(C(=O)O)cn3C2CC2)C1
0.25

Please do the same for N[C@H]1CCN(c2ccc3c(=O)c(C(=O)O)cn(C4CC4)c3c2F)C1 as well.
0.25

Lookup N[C@H]1CCN(c2ccc3c(=O)c(C(=O)O)cn(C4CC4)c3c2)C1
0.5

Same for N[C@H]1CCN(c2cc(F)c3c(=O)c(C(=O)O)cn(C4CC4)c3c2F)C1
2

Next record, please: N[C@H]1CCN(c2cc(F)c3c(=O)c(C(=O)O)cn(C4CC4)c3c2)C1
4
